molecular target: Cannabinoid receptor 2 (Homo sapiens, UniProt P34972); assay: Agonist activity at human recombinant CB2 receptor expressed in CHO cell membranes assessed as inhibition of forskolin-induced cAMP accumulation
Sequence (P34972 whole entry): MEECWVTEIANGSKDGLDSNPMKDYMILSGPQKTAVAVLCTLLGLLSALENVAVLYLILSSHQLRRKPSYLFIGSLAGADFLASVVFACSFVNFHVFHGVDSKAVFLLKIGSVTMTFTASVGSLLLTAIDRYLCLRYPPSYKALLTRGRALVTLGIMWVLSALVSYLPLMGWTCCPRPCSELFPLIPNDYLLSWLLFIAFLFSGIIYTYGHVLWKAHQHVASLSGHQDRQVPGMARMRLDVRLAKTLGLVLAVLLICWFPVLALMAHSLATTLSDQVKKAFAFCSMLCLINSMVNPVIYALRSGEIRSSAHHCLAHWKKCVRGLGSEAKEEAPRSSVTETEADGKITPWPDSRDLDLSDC
Below, each entry is listed alongside its reported IC50.
Answer shape: numeric part, then the unit.

compound	result type	measured value
CCCC1COc2cccc3c(=O)c(C(=O)NC45CC6CC(CC(C6)C4)C5)cn1c23 (racemic)	IC50	15.3 nM
CCCC1COc2cccc3c(=O)c(C(=O)NC4CCCCC4)cn1c23 (racemic)	IC50	1.53 nM

Record CC1COc2cccc3c(=O)c(C(=O)NC4CCCCCC4)cn1c23 (racemic) . Reported IC50: 210 nM

Documented IC50 of CCCC1COc2cccc3c(=O)c(C(=O)NC45CC6CC(C)(CC(C)(C6)C4)C5)cn1c23 (racemic) : 20 nM

Value of measured IC50 for the entry CC12CC3CC(C)(C1)CC(NC(=O)c1cn4c5c(cccc5c1=O)OCC4c1ccccc1)(C3)C2 (racemic) : 18.3 nM

// IC50 value for CC(C)[C@H]1COc2cccc3c(=O)c(C(=O)NC45CC6CC(CC(C6)C4)C5)cn1c23 : 55 nM

Just so you know, measured IC50 for O=C(NC12CC3CC(CC(C3)C1)C2)c1cn2c3c(cccc3c1=O)OC[C@H]2Cc1ccccc1 came out at 17.5 nM

Summary for this compound, CCCC1COc2ccc(C)c3c(=O)c(C(=O)NC4CCCCC4)cn1c23 (racemic) : IC50 is 122 nM

Given item CC[C@H]1COc2cccc3c(=O)c(C(=O)NC4CCCCCC4)cn1c23 , the value recorded as its IC50 is 682 nM

IC50 measured on CC[C@@H]1COc2cccc3c(=O)c(C(=O)NC4CCCCCC4)cn1c23 = 17.2 nM

// IC50 value for Cc1cc2c3c(c1)c(=O)c(C(=O)NC14CC5CC(CC(C5)C1)C4)cn3C(c1ccccc1)CO2 (racemic) : 472 nM

Reported IC50 of CC1COc2cccc3c(=O)c(C(=O)NC4CCCCC4)cn1c23 (racemic) : 245 nM

Looking up O=C(NC1CCCCC1)c1cn2c3c(cccc3c1=O)OCC2c1ccccc1 (racemic) , I see its IC50 listed as 15.2 nM

Just so you know, measured IC50 for CC[C@H]1COc2cccc3c(=O)c(C(=O)NC45CC6CC(CC(C6)C4)C5)cn1c23 came out at 413 nM

Reported IC50 ( CC(C)C[C@@H]1COc2cccc3c(=O)c(C(=O)NC45CC6CC(CC(C6)C4)C5)cn1c23 ) = 36 nM

Per the records, this compound ( O=C(NC12CC3CC(CC(C3)C1)C2)c1cn2c3c(cccc3c1=O)OCC2C1CC1 (racemic) ) has IC50 equal to 32 nM

According to the records, this compound CC1Oc2cccc3c(=O)c(C(=O)NC4CCCCC4)cn(c23)C1c1ccccc1 (racemic) displays IC50 of 2750 nM

GET /value?item= CC1(C)COc2cccc3c(=O)c(C(=O)NC45CC6CC(CC(C6)C4)C5)cn1c23 &field=IC50 returns 242 nM

---

Molecular target: Cannabinoid receptor 2 (Rattus norvegicus)
Sequence (Q9QZN9 whole entry): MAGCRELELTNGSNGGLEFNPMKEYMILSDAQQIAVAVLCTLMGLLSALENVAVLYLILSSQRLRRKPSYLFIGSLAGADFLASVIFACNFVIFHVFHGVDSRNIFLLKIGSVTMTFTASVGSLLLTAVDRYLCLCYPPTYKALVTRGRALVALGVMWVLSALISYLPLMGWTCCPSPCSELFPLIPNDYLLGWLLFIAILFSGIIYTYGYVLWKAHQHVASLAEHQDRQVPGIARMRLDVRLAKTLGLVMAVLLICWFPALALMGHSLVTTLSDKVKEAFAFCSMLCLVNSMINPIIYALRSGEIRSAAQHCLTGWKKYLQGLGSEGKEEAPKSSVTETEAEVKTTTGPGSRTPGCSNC
Please use Y for Ki under 100 nM and N for everything else, ties included.

As a guide, the following entries are already answered.
compound	classification
CCC1COc2cccc3c(=O)c(C(=O)Nc4nccs4)cn1c23 (racemic)	N
CCC1COc2c(OC)ccc3c(=O)c(C(=O)NC45CC6CC(CC(C6)C4)C5)cn1c23 (racemic)	Y
CC12CC3CC(C)(C1)CC(NC(=O)c1cn4c5c(cccc5c1=O)OCC4c1ccccc1)(C3)C2 (racemic)	Y

Query: Record CC1Oc2cccc3c(=O)c(C(=O)NC4CCCCC4)cn(c23)C1c1ccccc1 (racemic) : is its Ki strictly below 100 nM?
Response: N

Query: Does the reported Ki of CCCC1COc2cccc3c(=O)c(C(=O)NC45CC6CC(C)(CC(C)(C6)C4)C5)cn1c23 (racemic) stay below 100 nM?
Response: Y

Query: Item CCCC1COc2ccc(C)c3c(=O)c(C(=O)NC45CC6CC(CC(C6)C4)C5)cn1c23 (racemic) : Ki beneath 100 nM, strictly?
Response: Y

Query: is_below(Ki, 100 nM) for O=C(NC12CC3CC(CC(C3)C1)C2)c1cn2c3c(cccc3c1=O)OCC2C1CC1 (racemic) ?
Response: Y

Query: Bench note: check whether CCC1COc2cccc3c(=O)c(C(=O)N(C(C)C)C(C)C)cn1c23 (racemic) shows Ki below 100 nM
Response: N
